Exercise: state measured self-cleavage for each of the variants provided.
B1: HDV Ribozyme (parent)
chain: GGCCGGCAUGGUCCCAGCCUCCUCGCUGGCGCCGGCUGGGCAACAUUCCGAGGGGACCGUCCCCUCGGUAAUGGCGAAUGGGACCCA

Variants of: B1
Experiment: self-cleavage, relative activity (ratio to wild type); higher = more cleavage; co-transcriptional
One number for each entry.

[
  {
    "Input Sequence": "GGCCUGCAUGGUCCCAGCCUCCUCGCUGGCGCCGGCUGGGCAACAUUCCGAGGGGACCGUCCCCUCGGUAAUGGCGAAUGGGACCCU",
    "self-cleavage": 0.293
  },
  {
    "Input Sequence": "GGCCGGCAUGGUCCCAGCCUCCUCGCUGGCGCCGGCUGGGCAGCAUUCCGAGGGGACCGUCCCCUCGGUAAUGGCGAAUGAGACCCA",
    "self-cleavage": 0.0941
  },
  {
    "Input Sequence": "GGCCGGCAUGGACCCAGCCUCCUCGCUGGCGCCGGCUGGGCAACAUUCCGAGAGGACCGUCCCCUCGGUAAUGGCGAAUGGGACCCA",
    "self-cleavage": 0.403
  },
  {
    "Input Sequence": "GGCCGGCAUGGUCCCAGCCUUCUCGCUGGCGCCGGCUGGGCAACAUUCCGAGGGGACCGUCCCCUCGGUAAUGGCGAAGGGGACCCA",
    "self-cleavage": 0.0426
  },
  {
    "Input Sequence": "GGCCGGCAUGGUCCCAGCCUCCUCGCUGUCGCCGGCUGGGCAACAUUCCGAGGGGACCGUCCCCUCGGUGAUGGCGAAUGGGACCCA",
    "self-cleavage": 0.0396
  },
  {
    "Input Sequence": "GGCCGGCAUGGUCCCAGCCUCCUCGCUGGCGCCGGCUGGGCAACAUUCCGAGGGGCCCGUCCACUCGGUAAUGGCGAAUGGGACCCA",
    "self-cleavage": 1.04
  },
  {
    "Input Sequence": "GGCCGGCAUGGUCCCAGCCUCCUCGCUGGAGCCGGCUGGGCAACAUUCCGAGGGGACCGUCCCCUCGGUAAUGGCGAAUGGGACACA",
    "self-cleavage": 0.295
  },
  {
    "Input Sequence": "GGCCGGCAUGGUCCCAGCCUCCUCGCUGGCGCCGGCUGGGUAACAUUCCGAGGGGACCGUCCCCUCUGUAAUGGCGAAUGGGACCCA",
    "self-cleavage": 0.604
  },
  {
    "Input Sequence": "GGCCGGCAUGUUCCCAGCCUCCUCGCUGGCGCCGGCUGGACAACAUUCCGAGGGGACCGUCCCCUCGGUAAUGGCGAAUGGGACCCA",
    "self-cleavage": 0.387
  },
  {
    "Input Sequence": "GGCCGGCAUGGUCGCAGCCUCCUCGCUGGCUCCGGCUGGGCAACAUUCCGAGGGGACCGUCCCCUCGGUAAUGGCGAAUGGGACCCA",
    "self-cleavage": 0.0386
  }
]

Need self-cleavage for each of these variants.
1. GGCCGGCAUGGUCCCAGCCUCCUCGCUGGCGCCGGCUGGACAACAUUCCGAGGGGACCCUCCCCUCGGUAAUGGCGAAUGGGACCCA
2. GGCCGGCAUGGUCCCAGCCUCCUCGCUGGCGCCGGCUCGGCAACAUUCCGAGGGGACCGUCCCCUCGGUAAUGUCGAAUGGGACCCA
3. GGCCGGCAUGGUCCCAGCCUCCUCGCUGGCGCCGGCUGGGCAACAUUCCGGGGAGACCGUCCCCUCGGUAAUGGCGAAUGGGACCCA
4. GGCCGGCAUGGUCCCAGCCUCCUCGCUGGCGCCGGCUGGGCAACAUUCCGAGGGGACCGUCCCCUGGGUAAUGGCGAAUGGAACCCA
5. GGCCGGCAUGGUCCCAGCCUCCUCGCUGGCGCCGGGUGGGCAACAUUCCGAGGGGACCGUCCCCUCGGUAAUGGCGAACGGGACCCA
6. GGCCGGCAUGGUCCCAGCCUCCUCGCAGGCGCCGGCUGGGCAACAUUCCGAGGGGACCGUCCCCUCGGUACUGGCGAAUGGGACCCA
7. GGCCGGCAUGGUCCCAGCCUCCUAGCUGGCGCCGGCUGGGCAACAUUCCGAGGGGACCGUCCCCUCGGUUAUGGCGAAUGGGACCCA
8. GGCCGGCAUGGUCCCAGCCUCCUCGCUGGCGCCGGCUGGGCAACAUUCUGAGGGGACCGUCCCCUCGGUAAUGGCGAACGGGACCCA

1. 0.831
2. 0.0739
3. 0.831
4. 0.369
5. 0.154
6. 1.03
7. 0.612
8. 0.47
